# Method summary: qHTS assay for identifying genotoxic compounds that show differential cytotoxicity against isogenic chicken DT40 cell lines with known DNA damage response pathways - wild type cell line (AID 743012); further: nearly all actives have a fitted effect of over 60% in size; further: potency means the concentration at half of the fitted maximal effect
# Run parameters: DT40 wild type chicken cells viability, CellTiter-Glo, 40 h; series mostly up to 68.4 µM
Inconclusive results are not listed. Activity calls are given as the source filed them. The call rests on the fitted dose curve; in most records, active means well fitted cell-killing curve with a large enough effect in the repeat runs; inconclusive means weak or mixed curves, or effect the other way; inactive means no such curve, though single readings can be large or run the other way.
Readout label: Potency

A selection of reference data follows.
Compound	Potency
O=[N+]([O-])c1c(Cl)c(Cl)c(Cl)c(Cl)c1Cl	61.1 µM (active)
Nc1ccncc1	inactive
CC(C)c1ccc(CO)cc1	inactive
CCN(CC)C(=O)SCc1ccc(Cl)cc1	43.3 µM (active)
N#CCCCl	inactive
CC(C)N(C(=O)SCC(Cl)=C(Cl)Cl)C(C)C	61.1 µM (active)
C#C[C@]1(O)CC[C@H]2[C@@H]3CCC4=CC(=O)CC[C@]4(C)[C@H]3CC[C@@]21C	inactive
S=C1NCCN1	inactive
CCc1cccc(CC)c1N(COC)C(=O)CCl	19.3 µM (active)
c1cc(OCC2CO2)ccc1Cc1ccc(OCC2CO2)cc1 (stereo unspecified)	13.7 µM (active)

Read the entry CCC(C)(c1ccc(O)cc1)c1ccc(O)cc1 and write its reported Potency.
27.3 µM (active)

Read the entry c1ccc(N=Nc2ccccc2)cc1 and write its reported Potency.
inactive

Read the entry OCC(O)CO and write its reported Potency.
inactive

Read the entry CCCCCCCCCCCOC(=O)c1ccccc1C(=O)OCCCCCCCCCCC and write its reported Potency.
inactive

Read the entry Nc1cccnc1 and write its reported Potency.
inactive

Read the entry CCN(CC)C(=O)/C(Cl)=C(\C)OP(=O)(OC)OC and write its reported Potency.
inactive

Read the entry CC(C)Oc1cc(-n2nc(C(C)(C)C)oc2=O)c(Cl)cc1Cl and write its reported Potency.
5.45 µM (active)

Read the entry C1=Cc2cccc3cccc1c23 and write its reported Potency.
inactive

Read the entry CCN(CC)N=O and write its reported Potency.
inactive

Read the entry CCN(N=O)C(N)=O and write its reported Potency.
inactive

Read the entry CCCCN(CC)c1c([N+](=O)[O-])cc(C(F)(F)F)cc1[N+](=O)[O-] and write its reported Potency.
inactive

// data source = PubChem BioAssay (Tox21)
